- Tested on: Saccharomyces cerevisiae
- procedureSummary: protein stability index of tFT-peptide fusion (C-terminal peptide) (PSI (0-1 scale)); higher = more stable (slower turnover)
- runConditions: genetic background: doa10 deletion; temperature: 30 C
Can you tell me protein stability index for the items I'm about to list?
Give only the figure.

Req: Give recorded protein stability index with Saccharomyces cerevisiae for the following sequence: "RLIQPLPVQFLN"
Resp: 0.0708

Req: Give recorded protein stability index with Saccharomyces cerevisiae for the following sequence: "FMCFVLPVFVLV"
Resp: 0.196

Req: Give recorded protein stability index with Saccharomyces cerevisiae for the following sequence: "FYAAILCLLFSC"
Resp: 0.229

Req: Give recorded protein stability index with Saccharomyces cerevisiae for the following sequence: "STSSVMVFLRMC"
Resp: 0.14

Req: Give recorded protein stability index with Saccharomyces cerevisiae for the following sequence: "YLYSSSPWILHG"
Resp: 0.274

Req: Give recorded protein stability index with Saccharomyces cerevisiae for the following sequence: "VSLCVVYGLVVG"
Resp: 0.252

Req: Give recorded protein stability index with Saccharomyces cerevisiae for the following sequence: "LVLALTPFLHSF"
Resp: 0.239

Req: Give recorded protein stability index with Saccharomyces cerevisiae for the following sequence: "PSPYSLSPYFLV"
Resp: 0.255

Req: Give recorded protein stability index with Saccharomyces cerevisiae for the following sequence: "FILLIFLSLLSP"
Resp: 0.26

Req: Give recorded protein stability index with Saccharomyces cerevisiae for the following sequence: "LLPFSLLDLLLC"
Resp: 0.361

Req: Give recorded protein stability index with Saccharomyces cerevisiae for the following sequence: "SWTAYSYQWVFF"
Resp: 0.0469

Req: Give recorded protein stability index with Saccharomyces cerevisiae for the following sequence: "SLFFCIPIHSVF"
Resp: 0.398

Req: Give recorded protein stability index with Saccharomyces cerevisiae for the following sequence: "ALLLLLRRFFLV"
Resp: 0.0867

Req: Give recorded protein stability index with Saccharomyces cerevisiae for the following sequence: "AGCFFVVLCGFF"
Resp: 0.311

Req: Give recorded protein stability index with Saccharomyces cerevisiae for the following sequence: "FLWLCLLSLFFR"
Resp: 0.547

Req: Give recorded protein stability index with Saccharomyces cerevisiae for the following sequence: "PPIPTPSPIPLH"
Resp: 0.667

Req: Give recorded protein stability index with Saccharomyces cerevisiae for the following sequence: "RYKIEKKKLMNN"
Resp: 0.182

Req: Give recorded protein stability index with Saccharomyces cerevisiae for the following sequence: "HRPRPLLKLLAS"
Resp: 0.0522

Req: Give recorded protein stability index with Saccharomyces cerevisiae for the following sequence: "CMLGVVRVLVWF"
Resp: 0.101

Req: Give recorded protein stability index with Saccharomyces cerevisiae for the following sequence: "HRLQFKGYPICA"
Resp: 0.18

Req: Give recorded protein stability index with Saccharomyces cerevisiae for the following sequence: "LFFFVCYLATVK"
Resp: 0.166

Req: Give recorded protein stability index with Saccharomyces cerevisiae for the following sequence: "GVLTVVLQVGVV"
Resp: 0.282

Req: Give recorded protein stability index with Saccharomyces cerevisiae for the following sequence: "LLQCRTGLASGR"
Resp: 0.652

Req: Give recorded protein stability index with Saccharomyces cerevisiae for the following sequence: "GEVLWAVLLVSC"
Resp: 0.164

Req: Give recorded protein stability index with Saccharomyces cerevisiae for the following sequence: "LSFYLRAVRASL"
Resp: 0.562

Req: Give recorded protein stability index with Saccharomyces cerevisiae for the following sequence: "NCMGLLMPLLIT"
Resp: 0.269

Req: Give recorded protein stability index with Saccharomyces cerevisiae for the following sequence: "KRRKERIKIQQI"
Resp: 0.122

Req: Give recorded protein stability index with Saccharomyces cerevisiae for the following sequence: "VPRSLYSVLRLA"
Resp: 0.0744

Req: Give recorded protein stability index with Saccharomyces cerevisiae for the following sequence: "PFFVFSFLFLLH"
Resp: 0.194

Req: Give recorded protein stability index with Saccharomyces cerevisiae for the following sequence: "SVIAYTKPLWFR"
Resp: 0.658

Req: Give recorded protein stability index with Saccharomyces cerevisiae for the following sequence: "FGEDFCHLLWCC"
Resp: 0.347

Req: Give recorded protein stability index with Saccharomyces cerevisiae for the following sequence: "SYVFCYICGVQS"
Resp: 0.338

Req: Give recorded protein stability index with Saccharomyces cerevisiae for the following sequence: "ATSGATILVLIA"
Resp: 0.188

Req: Give recorded protein stability index with Saccharomyces cerevisiae for the following sequence: "VGFIVCFFFSFG"
Resp: 0.3

Req: Give recorded protein stability index with Saccharomyces cerevisiae for the following sequence: "ALWFVLISILCL"
Resp: 0.304

====

- System: Saccharomyces cerevisiae
- procedureSummary: protein stability index of tFT-peptide fusion (C-terminal peptide) (PSI (0-1 scale)); higher = more stable (slower turnover)
- runConditions: genetic background: wild type; temperature: 30 C
property: protein stability index
Give only the figure.

Req: Give recorded protein stability index with Saccharomyces cerevisiae for the following sequence: IKMIKELGNHRL [RMD6 C-terminal 12 aa]
Resp: 0.646

Req: Give recorded protein stability index with Saccharomyces cerevisiae for the following sequence: GAALMALLGKWA [ZRT2 C-terminal 12 aa]
Resp: 0.638

Req: Give recorded protein stability index with Saccharomyces cerevisiae for the following sequence: DLLNSVVVQRWA [SHP1 C-terminal 12 aa]
Resp: 0.702

Req: Give recorded protein stability index with Saccharomyces cerevisiae for the following sequence: QTILKNKKKISQ [GYP6 C-terminal 12 aa]
Resp: 0.684

Req: Give recorded protein stability index with Saccharomyces cerevisiae for the following sequence: KKHRVGMPKEDK [DIC1 C-terminal 12 aa]
Resp: 0.69

Req: Give recorded protein stability index with Saccharomyces cerevisiae for the following sequence: IQESRFNFYLIT [RKM5 C-terminal 12 aa]
Resp: 0.624

Req: Give recorded protein stability index with Saccharomyces cerevisiae for the following sequence: LNNFKFKTNSKQ [XBP1 C-terminal 12 aa]
Resp: 0.679

Req: Give recorded protein stability index with Saccharomyces cerevisiae for the following sequence: KAFVIGAIALVA [YMR317W C-terminal 12 aa]
Resp: 0.341

Req: Give recorded protein stability index with Saccharomyces cerevisiae for the following sequence: VRKLSFHVYEDE [ACM1 C-terminal 12 aa]
Resp: 0.658

Req: Give recorded protein stability index with Saccharomyces cerevisiae for the following sequence: TEDQFKENGVKK [ICL1 C-terminal 12 aa]
Resp: 0.716

====

Can you tell me protein stability index for the items I'm about to list?
- Tested on: Saccharomyces cerevisiae
- procedureSummary: protein stability index of tFT-peptide fusion (C-terminal peptide) (PSI (0-1 scale)); higher = more stable (slower turnover)
- runConditions: genetic background: das1 deletion; temperature: 37 C
Give only the figure.

Req: // query protein stability index value for entry "VLAYFCYVVFVI"
Resp: 0.39

Req: // query protein stability index value for entry "SGRGFSFVLCTV"
Resp: 0.58

Req: // query protein stability index value for entry "RLLFFVFLSSRF"
Resp: 0.472

Req: // query protein stability index value for entry "WSVCLLLLGRFC"
Resp: 0.617

Req: // query protein stability index value for entry "TPVIPLIRVRDC"
Resp: 0.691

Req: // query protein stability index value for entry "GHSALWQVPRLM"
Resp: 0.754

Req: // query protein stability index value for entry "CRHCFVLLYFDY"
Resp: 0.384

Req: // query protein stability index value for entry "LQSYIFSVRGIS"
Resp: 0.707

Req: // query protein stability index value for entry "GVMICLDLLLSV"
Resp: 0.539

Req: // query protein stability index value for entry "VKVIILYKIIEV"
Resp: 0.535

Req: // query protein stability index value for entry "RFFKMREAIRIS"
Resp: 0.59

Req: // query protein stability index value for entry "AFLFLFSITCIV"
Resp: 0.342

Req: // query protein stability index value for entry "LCVWRRAIVWVG"
Resp: 0.512

Req: // query protein stability index value for entry "FNFFFSSVFLLV"
Resp: 0.436

====

- System: Saccharomyces cerevisiae
- procedureSummary: protein stability index of tFT-peptide fusion (C-terminal peptide) (PSI (0-1 scale)); higher = more stable (slower turnover)
- runConditions: genetic background: wild type; temperature: 30 C
Category scheme (protein stability index): Low = under 0.6, Medium = from 0.6 up to 0.7, High = 0.7 and over

Req: Class (by measured protein stability index) for "VWAWGACPRGEG"
Resp: Medium

Req: Class (by measured protein stability index) for "VLAYFCYVVFVI"
Resp: Low

Req: Class (by measured protein stability index) for "VWFCCLFFCFFV"
Resp: Low

Req: Class (by measured protein stability index) for "NINVSFLSNECR"
Resp: Medium

Req: Class (by measured protein stability index) for "EGPPYSRYKGGS"
Resp: Medium

Req: Class (by measured protein stability index) for "ERLKRNKKSTNG"
Resp: High

Req: Class (by measured protein stability index) for "SDVLSFYGGVEC"
Resp: High

Req: Class (by measured protein stability index) for "CGWGVWGAKSGR"
Resp: Medium

Req: Class (by measured protein stability index) for "RRIKNRRLKQVT"
Resp: Low

Req: Class (by measured protein stability index) for "LSPLPPSPPPST"
Resp: Low

Req: Class (by measured protein stability index) for "FILCGFSVVLIG"
Resp: Low
